molecular target: Ima1p (Saccharomyces cerevisiae, UniProt P53051); test: Substrate specificity of purified isomaltase; format: biochemical; settings: 100 mM substrate (pNPG 5 mM), pH 7, 30 °C
Sequence (P53051 whole entry): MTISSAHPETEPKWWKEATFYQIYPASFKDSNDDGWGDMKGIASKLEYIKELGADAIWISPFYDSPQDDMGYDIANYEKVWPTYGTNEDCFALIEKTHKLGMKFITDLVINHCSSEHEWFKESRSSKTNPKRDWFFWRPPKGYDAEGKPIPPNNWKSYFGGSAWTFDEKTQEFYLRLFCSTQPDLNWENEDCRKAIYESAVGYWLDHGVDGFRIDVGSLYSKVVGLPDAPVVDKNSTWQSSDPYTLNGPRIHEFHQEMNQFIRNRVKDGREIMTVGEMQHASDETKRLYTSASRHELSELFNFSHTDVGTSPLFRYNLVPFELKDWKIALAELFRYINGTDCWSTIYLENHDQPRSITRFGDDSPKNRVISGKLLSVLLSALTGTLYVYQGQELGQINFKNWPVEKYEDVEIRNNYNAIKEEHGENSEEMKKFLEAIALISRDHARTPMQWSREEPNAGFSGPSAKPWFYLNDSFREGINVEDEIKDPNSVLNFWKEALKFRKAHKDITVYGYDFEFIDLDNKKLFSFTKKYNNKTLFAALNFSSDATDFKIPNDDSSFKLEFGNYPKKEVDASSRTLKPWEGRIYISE
parameter_measured: relative activity, velocity on isomaltose set to 100
The answer consists of two parts: a number and, after it, its unit.

compound	result
OC[C@H]1O[C@H](OC[C@H]2O[C@H](OC[C@H]3OC(O)[C@H](O)[C@@H](O)[C@@H]3O)[C@H](O)[C@@H](O)[C@@H]2O)[C@H](O)[C@@H](O)[C@@H]1O (stereo partly drawn)	13%
OC[C@H]1O[C@H](O[C@@H]2[C@@H](O)[C@H](O)[C@@H](CO)O[C@@H]2O)[C@H](O)[C@@H](O)[C@@H]1O	13%
OC[C@H]1O[C@H](OC[C@H]2O[C@H](O)[C@H](O)[C@@H](O)[C@@H]2O)[C@H](O)[C@@H](O)[C@@H]1O	100%
OC[C@H]1O[C@@](CO)(O[C@H]2O[C@H](CO)[C@@H](O)[C@H](O)[C@H]2O)[C@@H](O)[C@@H]1O	31%
OC[C@H]1O[C@H](O[C@@H]2COC(O)(CO)[C@@H](O)[C@@H]2O)[C@H](O)[C@@H](O)[C@@H]1O (stereo partly drawn)	14%

Qu. Query: relative activity, velocity on isomaltose set to 100; subject: O=C(CO)[C@@H](O[C@H]1O[C@H](CO)[C@@H](O)[C@H](O)[C@H]1O)[C@H](O)[C@H](O)CO
Ans. 7%
